ASSAYED_TARGET: WT STING (Homo sapiens, UniProt Q86WV6, H232R)
Sequence (Q86WV6 140-343 H232R): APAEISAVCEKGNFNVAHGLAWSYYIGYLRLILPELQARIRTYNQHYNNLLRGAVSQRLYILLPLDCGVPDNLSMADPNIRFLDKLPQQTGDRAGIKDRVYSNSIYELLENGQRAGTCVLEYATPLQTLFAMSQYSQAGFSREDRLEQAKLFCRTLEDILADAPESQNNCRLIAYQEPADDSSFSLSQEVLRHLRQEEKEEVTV
TEST_DETAILS: Differential scanning fluorimetry (DSF) with WT STING
Type: binding
Parameters: 8xHis (N, cleaved yes); SUMO (N, cleaved yes); made in house; host or cells: E. coli Rosetta-gami B (DE3)
RUN_CONDITIONS: thermal shift vs apoprotein; 150 μM CDN; truncated human WT STING 0.1 mg/ml
The threshold is 4 °C. Values of ΔTm at 150 µM beneath it are tagged y; values meeting or exceeding it are tagged n.

These recorded examples may help you get a feel for the data.
INSERT INTO measurements (compound, class_name) VALUES
  ('Nc1nc2c(ncn2[C@@H]2O[C@@H]3COP(=O)(S)OC4C(F)[C@H](n5cnc6c(N)ncnc65)C[C@@H]4COP(=O)(S)OC3C2F)c(=O)[nH]1 (stereo partly drawn) [Compound 132b]', 'n'),
  ('Nc1ncnc2c1ncn2[C@H]1CC2OP(=O)(O)OC[C@H]3O[C@@H](n4cnc5c(N)ncnc54)C(F)C3OP(=O)(O)OC[C@H]2C1 (stereo partly drawn) [Compound 119]', 'n'),
  ('Nc1nc2c(ncn2[C@H]2CC3OP(=O)(O)OC[C@H]4C[C@@H](n5cnc6c(=O)[nH]c(N)nc65)C(O)C4OP(=O)(O)OC[C@H]3C2)c(=O)[nH]1 (stereo partly drawn) [Compound 123]', 'y'),
  ('Nc1ncnc2c1ncn2[C@@H]1C[C@@H]2COP(=O)(O)OC3C(O)[C@H](n4cnc5c(N)ncnc54)C[C@@H]3COP(=O)(O)OC2C1O (stereo partly drawn) [Compound 133]', 'y'),
  ('Nc1nc2c(ncn2[C@H]2CC3OP(=O)(O)OC[C@H]4O[C@@H](n5cnc6c(N)ncnc65)C(F)C4OP(=O)(O)OC[C@H]3C2)c(=O)[nH]1 (stereo partly drawn) [Compound 116]', 'n');

API: the following record is the query input.
Consider Nc1nc2c(ncn2[C@H]2CC3OP(=O)(O)OC[C@H]4O[C@@H](n5cnc6c(N)ncnc65)C(O)C4OP(=O)(O)OC[C@H]3C2)c(=O)[nH]1 (stereo partly drawn) [Compound 115] . Does its ΔTm at 150 µM lie strictly below 4 °C?
y
